Would you mind telling me the reported relative IC50 of each entry?
- System: YST-1
- PROCEDURE TEXT: relative IC50 (inflection point of fitted dose-response curve, CellTiter-Glo viability, 72 h; top asymptote may be below 50% inhibition); higher = less potent
Give bare numbers, in µM.

Please review the entries below; each comes with its answer.
• CN(C)Cc1c(C(=O)NCCOc2ccc(C(=O)NO)cc2)oc2ccccc12 = 0.0723
• COC1=CC(c2cc3ccccc3[nH]2)=N/C1=C\c1[nH]c(C)cc1C = 1.23
• Nc1ncnc2c1nc(Cl)n2[C@@H]1O[C@H](CO)[C@@H](O)[C@H]1O = 2.58
• O=C(Nc1ccc2[nH]nc(-c3ccncc3)c2c1)[C@@H]1CCN(CC(=O)N2CCN(c3ccc(-c4ncccn4)cc3)CC2)C1 = 2.27

q: # get_value(readout= relative IC50, system= YST-1) for CN1CCN(c2cc(C(=O)Nc3ccc4c(c3)-c3c(c(C(N)=O)nn3-c3ccc(F)cc3)CC4)c(Cl)cn2)CC1
a: 3.08

###

- Test system: STS26T
- PROCEDURE TEXT: relative IC50 (inflection point of fitted dose-response curve, CellTox-Green cytotoxicity, 72 h; top asymptote may be below 50%); higher = less potent
MEASUREMENT NAME: relative IC50

Please review the entries below; each comes with its answer.
- O=C(Nc1ccncc1)C(=O)c1cn(Cc2ccc(Cl)cc2)c2ccccc12 [Indibulin]: 0.146 µM
- Nc1ncnc2c1nc(N)n2[C@@H]1O[C@H](CO)[C@@H](O)[C@H]1O [8-amino-adenosine]: 1.06 µM
- Cc1ccc(NC(=O)c2ccc(CN3CCN(C)CC3)cc2)cc1Nc1nccc(-c2cccnc2)n1 [Imatinib]: > 10 µM
- Oc1ccc2c(c1)CC[C@H](c1ccccc1)[C@@H]2c1ccc(OCCN2CCCC2)cc1 [Lasofoxifene]: > 1 µM
- COc1ccc(-c2ccc3c(N4CCOC[C@@H]4C)nc(N4CCOC[C@@H]4C)nc3n2)cc1CO [AZD8055]: > 10 µM

Would you mind giving relative IC50 for every molecule in the list below?
1. CCCCC/C=C/C=C1/C(=O)C=C[C@@H]1C/C=C\CCCC(=O)O [15D-PGJ2]
2. CC1(C)CNc2cc(NC(=O)c3cccnc3NCc3ccncc3)ccc21 [Motesanib]
3. CS(=O)(=O)CCNCc1ccc(-c2ccc3ncnc(Nc4ccc(OCc5cccc(F)c5)c(Cl)c4)c3c2)o1 [Lapatinib]

a:
["> 0.8 µM", "> 10 µM", "> 1 µM"]

###

Would you mind telling me the reported drug sensitivity score of each entry?
- Tested on: HSC1 (primary human Schwann cells)
- PROCEDURE TEXT: drug sensitivity score (DSS, CellTox-Green cytotoxicity, 72 h) (DSS (dimensionless)); higher = more cytotoxic; extreme values may be limits of the assay

Please review the entries below; each comes with its answer.
* C[C@@H](C(=O)O)c1ccc(-c2ccccc2)c(F)c1 [Tarenflurbil] (max concentration tested 10000 nM) | 0
* S=P(N1CC1)(N1CC1)N1CC1 [Thio-TEPA] (max concentration tested 50000 nM) | 0.888
* CN(C)C/C=C/C(=O)Nc1cc2c(Nc3ccc(F)c(Cl)c3)ncnc2cc1O[C@H]1CCOC1 [Afatinib] (max concentration tested 1000 nM) | 0
* Sc1ncnc2nc[nH]c12 [Mercaptopurine] (max concentration tested 10000 nM) | 0
* O=C(c1cc(Cc2n[nH]c(=O)c3ccccc23)ccc1F)N1CCN(C(=O)C2CC2)CC1 [Olaparib] (max concentration tested 10000 nM) | 0

Could you now look at the following compound, please?
q: Suppose we examine the compound Cc1cc2c(C(C)C)c(O)c(O)c(C=O)c2c(O)c1-c1c(C)cc2c(C(C)C)c(O)c(O)c(C=O)c2c1O [AT 101] (max concentration tested 100000 nM) ; what drug sensitivity score value has been reported?
a: 4.09

###

- Tested on: HS-PSS
- PROCEDURE TEXT: drug sensitivity score (DSS, CellTox-Green cytotoxicity, 72 h) (DSS (dimensionless)); higher = more cytotoxic; extreme values may be limits of the assay
Would you mind telling me the reported drug sensitivity score of each entry?
Numbers only.

• C#Cc1cccc(Nc2ncnc3cc(OC)c(OCCCCCCC(=O)NO)cc23)c1 [CUDC-101] (max concentration tested 10000 nM) = 6.98
• C#Cc1cccc(Nc2ncnc3cc(OCCOC)c(OCCOC)cc23)c1 [Erlotinib] (max concentration tested 10000 nM) = 0
• O=C(Nc1cccc(NC(=O)c2cccc(O)c2O)c1)c1cccc(O)c1O [MST-312] (max concentration tested 10000 nM) = 0.02
• Nc1nc(Nc2ccc3c(c2)CC[C@@H](N2CCCC2)CC3)nn1-c1cc2c(nn1)-c1ccccc1CCC2 [BGB324] (max concentration tested 10000 nM) = 0
• CNC(=O)c1c(F)cccc1Nc1nc(Nc2cc3c(cc2OC)CCN3C(=O)CN(C)C)nc2[nH]ccc12 (max concentration tested 2500 nM) = 1.53

q: Suppose we examine the molecule Cc1cnc(NC(=O)Nc2cc(Br)c(C)cc2OC[C@@H]2CNCCO2)cn1 [Rabusertib] (max concentration tested 1000 nM) ; what drug sensitivity score value has been reported?
a: 0

###

- System: HSC1 (primary human Schwann cells)
- PROCEDURE TEXT: drug sensitivity score (DSS, CellTox-Green cytotoxicity, 72 h) (DSS (dimensionless)); higher = more cytotoxic; extreme values may be limits of the assay
MEASUREMENT NAME: drug sensitivity score
Numbers only.

Please review the entries below; each comes with its answer.
* CC1(COc2ccc3c(c2)ncn3-c2ccc3cccc(N4CCC(N)CC4)c3n2)COC1 [Crenolanib] (max concentration tested 10000 nM) | 3.33
* C=CCN(/C=C1/C(=O)O[C@H](COC)[C@@]2(C)C1=C(O)C(=O)C1=C2[C@H](OC(C)=O)C[C@]2(C)C(=O)CC[C@@H]12)CC=C [Sonolisib] (max concentration tested 10000 nM) | 0
* Cn1c(=O)c(F)c(Nc2ccc(I)cc2F)c2c(=O)n(C[C@@H](O)CO)cnc21 [TAK-733] (max concentration tested 1000 nM) | 0
* Nc1ncnc2c1nc(N)n2[C@@H]1O[C@H](CO)[C@@H](O)[C@H]1O [8-amino-adenosine] (max concentration tested 50000 nM) | 4.02
* OC[C@H]1O[C@@H](n2cnc3c2N=CNC[C@H]3O)C[C@@H]1O [Pentostatin] (max concentration tested 10000 nM) | 0

q: # get_value(readout= drug sensitivity score, system= HSC1 (primary human Schwann cells)) for Cn1cnc(-c2cc3nccc(Oc4ccc(NC(=S)NC(=O)Cc5ccccc5)cc4F)c3s2)c1 [MGCD-265] (max concentration tested 10000 nM)
a: 0

###

- Test system: HS-Sch-2
- PROCEDURE TEXT: relative IC50 (inflection point of fitted dose-response curve, CellTiter-Glo viability, 72 h; top asymptote may be below 50% inhibition); higher = less potent
# if value of relative IC50 reaches 3000 nM, tag true (1); if it stays below, tag false (0)

Reference set, count: 2
- C[C@@H]1CCN(C(=O)CC#N)C[C@@H]1N(C)c1ncnc2[nH]ccc12: true (1)
- CC1=NN(c2ccc(C(=O)O)cc2)C(=O)C1=Cc1ccc(-c2cc(C)c(C)cc2[N+](=O)[O-])o1: true (1)

q: hey, is relative IC50 for this one >= 3000 nM? Nc1ccccc1NC(=O)c1ccc(CNC(=O)OCc2cccnc2)cc1
a: true (1)

q: hey, is relative IC50 for this one >= 3000 nM? Nc1ncnc2c1nc(N)n2[C@@H]1O[C@H](CO)[C@@H](O)[C@H]1O
a: false (0)

q: hey, is relative IC50 for this one >= 3000 nM? CC[C@]1(O)C[C@H]2CN(CCc3c([nH]c4ccccc34)[C@@](C(=O)OC)(c3cc4c(cc3OC)N(C=O)[C@H]3[C@@](O)(C(=O)OC)[C@H](OC(C)=O)[C@]5(CC)C=CCN6CC[C@]43[C@@H]65)C2)C1
a: false (0)

q: hey, is relative IC50 for this one >= 3000 nM? COc1ccc(CCc2nc3cc(-c4c(C)noc4C)ccc3n2C[C@H](C)N2CCOCC2)cc1Cl
a: true (1)

###

- Tested on: HS-PSS
- PROCEDURE TEXT: % inhibition of CellTiter-Glo viability at highest tested concentration (72 h), relative to DMSO and benzethonium chloride controls; higher = more inhibition
MEASUREMENT NAME: % inhibition (%)
Numbers only, in %.

Please review the entries below; each comes with its answer.
- CN1CC[C@H](c2c(O)cc(O)c3c(=O)cc(-c4ccccc4Cl)oc23)[C@H](O)C1 [Alvocidib] (max concentration tested 10000 nM): 83.7
- CN(c1ccccc1CNc1nc(Nc2ccc3c(c2)CC(=O)N3)ncc1C(F)(F)F)S(C)(=O)=O (max concentration tested 10000 nM): 83.9
- COc1cc(CCc2cc(NC(=O)c3ccc(N4CC(C)NC(C)C4)cc3)n[nH]2)cc(OC)c1 (configuration not stated) [AZD4547] (max concentration tested 1000 nM): 4.91
- O=C(/C=C/c1cccc(S(=O)(=O)Nc2ccccc2)c1)NO [Belinostat] (max concentration tested 10000 nM): 88.1
- Nc1ccn([C@@H]2O[C@H](CO)[C@@H](O)[C@@H]2O)c(=O)n1 [Cytarabine] (max concentration tested 10000 nM): 65.1

Would you mind giving % inhibition for every compound in the list below?
1. Cc1ccc(NC(=O)c2ccc(CN3CCN(C)CC3)cc2)cc1Nc1nc(-c2cccnc2)cs1 [Masitinib] (max concentration tested 10000 nM)
2. CC(C)C[C@H](NC(=O)[C@H](CCc1ccccc1)NC(=O)CN1CCOCC1)C(=O)N[C@@H](Cc1ccccc1)C(=O)N[C@@H](CC(C)C)C(=O)[C@@]1(C)CO1 [Carfilzomib] (max concentration tested 1000 nM)
3. CO[C@H](C(=O)[C@@H](O)[C@@H](C)O)[C@@H]1Cc2cc3cc(O[C@H]4C[C@@H](O[C@H]5C[C@@H](O)[C@H](O)[C@@H](C)O5)[C@@H](O)[C@@H](C)O4)c(C)c(O)c3c(O)c2C(=O)[C@H]1O[C@H]1C[C@@H](O[C@H]2C[C@@H](O[C@H]3C[C@](C)(O)[C@H](O)[C@@H](C)O3)[C@H](O)[C@@H](C)O2)[C@H](O)[C@@H](C)O1 [Plicamycin] (max concentration tested 10000 nM)

a:
1: 83.9; 2: 99.9; 3: 96.8

These data points were gathered from the supplement of paper PMC5579334.
